mass density values for the compounds below.
Conditions: 298.1 K; 101.33 kPa; Liquid; Vibrating tube method
± gives the expanded uncertainty stated by the source.

compound | mass density
CCn1cc[n+](C)c1.F[B-](F)(F)F [1-ethyl-3-methylimidazolium tetrafluoroborate] | 1279.9 ± 1.5 kg/m3
CCCCCCn1cc[n+](C)c1.F[B-](F)(F)F [1-hexyl-3-methylimidazolium tetrafluoroborate] | 1145.4 ± 0.4 kg/m3
CCCCn1cc[n+](C)c1.F[B-](F)(F)F [1-butyl-3-methylimidazolium tetrafluoroborate] | 1201.2 ± 0.5 kg/m3
CCO | 785.8 ± 0.2 kg/m3
CCCCCCCC[n+]1ccn(C)c1.F[B-](F)(F)F [1-methyl-3-octylimidazolium tetrafluoroborate] | 1104.2 ± 0.4 kg/m3

----------
surface tension liquid-gas values for the molecules below.
Settings: 298.15 K, Drop volume

molecule | unit abbreviation | surface tension liquid-gas
CCCCCCCC[n+]1ccn(C)c1.F[B-](F)(F)F [1-methyl-3-octylimidazolium tetrafluoroborate] | mN/m | 32.84
CCCCn1cc[n+](C)c1.F[B-](F)(F)F [1-butyl-3-methylimidazolium tetrafluoroborate] | mN/m | 45.33
CCn1cc[n+](C)c1.F[B-](F)(F)F [1-ethyl-3-methylimidazolium tetrafluoroborate] | mN/m | 52.81
CCCCCCn1cc[n+](C)c1.F[B-](F)(F)F [1-hexyl-3-methylimidazolium tetrafluoroborate] | mN/m | 37.33
CCO | mN/m | 22
O | mN/m | 71.35
